# protocol_text: chemical genetic growth profiling, strain panel (AID 1159580);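 further: tested at 20 µM; growth read once vehicle control cultures reached saturation at 30 °C; 1 = growth at the plate median or of vehicle wells; lower values mean less growth of the strain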
# test_conditions: S. cerevisiae deletion strains, growth OD, locus YLR133W, strain CKI1, active compounds read low
The campaign covered roughly 5,500 compounds. About 2,000 (36%) were called active. Another 18% or so got no clear call; they are omitted. The list shows a part of the results.
quantity_kind: normalized growth

INSERT INTO measurements (molecule, quantity_kind, result) VALUES
  ('O=C1C(=O)N(CN2CCc3c([nH]c4ccccc34)C2C(F)(F)F)c2ccc(F)cc21 (centres undefined)', 'normalized growth', '0.836 (inactive)'),
  ('Cc1cc(C(=O)NNc2ccc(F)cc2F)no1', 'normalized growth', '0.93 (inactive)'),
  ('Cc1cc(NNC(=O)c2ccccc2Cl)nc2c1c(C)nn2C', 'normalized growth', '0.951 (inactive)'),
  ('O=S(=O)(Nc1cccc2nsnc12)c1cc(Cl)sc1Cl', 'normalized growth', '0.96 (inactive)'),
  ('O=S(=O)(Nc1cccc(CCc2ccccn2)c1)c1cc(Cl)c(Cl)cc1Cl', 'normalized growth', '0.965 (inactive)'),
  ('Cc1cc(Cl)ccc1NNC(=O)c1ccno1', 'normalized growth', '0.908 (inactive)'),
  ('Cc1nnsc1C(=O)NNc1ccc(F)cc1F', 'normalized growth', '0.812 (inactive)'),
  ('OC1(C(F)(F)F)CC(C23CC4CC(CC(C4)C2)C3)=NN1 (centres undefined)', 'normalized growth', '0.655 (active)');

Problem: Endpoint output: normalized growth of O=C(N/C=C/c1ccsc1)Nc1cc(C(F)(F)F)cc(C(F)(F)F)c1 . Value?
Result: 0.597 (active)

Problem: Endpoint output: normalized growth of Cc1cc(Cl)ccc1NNC(=O)c1snnc1C . Value?
Result: 0.891 (inactive)

Problem: Endpoint output: normalized growth of CSC1=NNC(c2nn(C)cc2Cl)S1 (centres undefined) . Value?
Result: 0.137 (active)

Problem: Endpoint output: normalized growth of COc1ccc(NNC(=O)c2sc3ccccc3c2Cl)cc1 . Value?
Result: 0.627 (active)

Problem: Endpoint output: normalized growth of COc1cc2c(cc1OC)C(C)N(C(=O)c1sc3ccccc3c1Cl)CC2 (centres undefined) . Value?
Result: 0.916 (inactive)

Problem: Endpoint output: normalized growth of S=C(Nc1ccc(Cl)cc1Cl)N(c1cccc(Cl)c1)c1nc2ccccc2s1 . Value?
Result: 0.783 (inactive)

---

normalized growth reference
# protocol_text: chemical genetic growth profiling, strain panel (AID 1159580)
# test_conditions: S. cerevisiae deletion strains, growth OD, locus YKL101W, strain HSL1, active compounds read low
About 2,000 (36%) of roughly 5,500 compounds were called active. Another 18% or so got no clear call; they are omitted. This is one part of the list.
In your answer, state the number alone without any accompanying words.

INSERT INTO measurements (compound, quantity_kind, number) VALUES
  ('S=C(Nc1ccc(Cl)cc1Cl)N(c1cccc(Cl)c1)c1nc2ccccc2s1', 'normalized growth', 0.823),
  ('Cc1cc(Cl)ccc1NNC(=O)c1snnc1C', 'normalized growth', 0.914);

Problem: Endpoint output: normalized growth of N#CC(C#N)=C(SCc1c(Cl)cccc1Cl)SCc1c(Cl)cccc1Cl . Value?
Result: 0.981

Problem: Endpoint output: normalized growth of O=C(Oc1ccc(C(F)(F)F)cc1[N+](=O)[O-])c1cccc(Cl)c1 . Value?
Result: 0.662

Problem: Endpoint output: normalized growth of COc1cc(NC(=S)NNS(=O)(=O)c2ccc(C)cc2)c(OC)cc1Cl . Value?
Result: 0.935

---

# protocol_text: chemical genetic growth profiling, strain panel (AID 1159580);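 further: tested at 20 µM; growth read once vehicle control cultures reached saturation at 30 °C; 1 = growth at the plate median or of vehicle wells; lower values mean less growth of the strain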
# test_conditions: S. cerevisiae deletion strains, growth OD, locus YEL061C, strain CIN8 (second series)
Screen size: about 5,500 compounds; about 2,000 (36%) were called active. Roughly 18% stayed inconclusive and do not appear here. Rule as the data show it: active = normalized growth mostly below about 0.91 (no sharp cut-off); inconclusive = no clear call, values can overlap the other calls; inactive = mostly above about 0.92. This is one part of the list.
Assign a class; possible classes are Y (active), N (inactive)

Below are worked cases with known answers.
INSERT INTO measurements (molecule, classification) VALUES
  ('CC(C[N+](C)(C)C)OC(N)=O (stereo not drawn)', 'N'),
  ('CC(=O)OC(C)(C)[C@@H]1Cc2cc3ccc(=O)oc3cc2O1', 'N'),
  ('CC(C)c1c(C(=O)c2ccccc2)c(-c2ccccc2)c(-c2ccc(F)cc2)n1CC[C@@H](O)C[C@@H](O)CC(=O)O', 'N'),
  ('CCCCCCNC(=O)n1cc(F)c(=O)[nH]c1=O', 'N'),
  ('C[N+](C)(C)CCOC(N)=O', 'N');

Problem: Just curious, what result did CCCCNc1cc(C(=O)O)cc(S(N)(=O)=O)c1Oc1ccccc1 get here?
Result: N

Problem: Just curious, what result did S=c1nc[nH]c2nc[nH]c12 get here?
Result: N

Problem: Just curious, what result did O=C(O)c1cc2ccccc2[nH]1 get here?
Result: N

Problem: Just curious, what result did CC(=O)OCC[N+](C)(C)C get here?
Result: N

Problem: Just curious, what result did CCC(=O)O[C@H]1[C@H](O[C@@H]2[C@@H](C)[C@H](O[C@H]3C[C@@](C)(OC)[C@@H](O)[C@H](C)O3)[C@@H](C)C(=O)O[C@H](CC)[C@@](C)(O)[C@H](O)[C@@H](C)C(=O)[C@H](C)C[C@@]2(C)O)O[C@H](C)C[C@@H]1N(C)C get here?
Result: Y

Problem: Just curious, what result did CC(CCc1ccccc1)NC(C)C(O)c1ccc(O)cc1 (stereo not drawn) get here?
Result: N

Problem: Just curious, what result did COc1ccc2c3c1O[C@H]1C[C@@H](O)C=C[C@@]31CCN(C)C2 get here?
Result: N

Problem: Just curious, what result did CO[C@H]1[C@H](O)[C@H](O[C@H]2CC[C@]3(C)C4CC[C@]5(C)C(C6=CC(=O)OC6)CC[C@]5(O)C4CC[C@@H]3C2)O[C@@H](C)[C@@H]1O (stereo partly drawn) get here?
Result: N

---

# protocol_text: chemical genetic growth profiling, strain panel (AID 1159580);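 further: tested at 20 µM; growth read once vehicle control cultures reached saturation at 30 °C; 1 = growth at the plate median or of vehicle wells; lower values mean less growth of the strain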
# test_conditions: S. cerevisiae deletion strains, growth OD, locus YEL037C, strain rad23, active compounds read low
About 2,000 (36%) of roughly 5,500 compounds were called active. About 18% were inconclusive and are not listed. The list shows a part of the results.
normalized growth reference
In your answer, state the number alone without any accompanying words.

INSERT INTO measurements (molecule_smiles, number) VALUES
  ('Cc1[nH]c(C)c(Cl)c(=O)c1Cl', 0.999),
  ('O=C(O)c1c2ccccc2cc2ccccc12', 1.01),
  ('CC1(C)OC(=O)NC1=O', 0.992),
  ('CC1=C(/C=C/C(C)=C/C=C/C(C)=C/C=C/C=C(C)/C=C/C=C(C)/C=C/C2=C(C)C(=O)CCC2(C)C)C(C)(C)CCC1=O', 0.971);

Problem: Endpoint output: normalized growth of CC1=C(/C=C/C(C)=C/C=C/C(C)=C/C=C/C=C(C)/C=C/C=C(C)/C=C/C(=O)[C@]2(C)C[C@@H](O)CC2(C)C)C(C)(C)C[C@H](O)C1 . Value?
Result: 1.02

Problem: Endpoint output: normalized growth of CN(C)C(=S)SSC(=S)N(C)C . Value?
Result: 0.0561

---

# protocol_text: chemical genetic growth profiling, strain panel (AID 1159580);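 further: tested at 20 µM; growth read once vehicle control cultures reached saturation at 30 °C; 1 = growth at the plate median or of vehicle wells; lower values mean less growth of the strain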
# test_conditions: S. cerevisiae deletion strains, growth OD, locus YNL271C, strain bni1, active compounds read low
The campaign covered roughly 5,500 compounds. About 2,000 (36%) were called active. Not shown: some 18% with an inconclusive outcome. The list shows a part of the results.
Doc: threshold 1 (exclusive). Items with normalized growth beneath it return yes (1); others return no (0).

Below are worked cases with known answers.
INSERT INTO results (compound, classification) VALUES
  ('COc1ccc2c(C)cc(=O)oc2c1', 'no (0)'),
  ('COc1cc(O)c(C(=O)/C=C/c2ccccc2)c(OC)c1', 'yes (1)'),
  ('COc1cc2c(cc1OC)C1C(=O)c3c(O)cc4c(c3OC1CO2)C=CC(C)(C)O4 (centres undefined)', 'no (0)');

Problem: Answer whether the compound O=C(O)c1c2ccccc2cc2ccccc12 has normalized growth strictly less than 1
Result: yes (1)

Problem: Answer whether the compound C=C1C([C@]2(C)C(CC(=O)OC)[C@@](C)(COC(C)=O)OC(=O)C[C@@H]2OC(C)=O)[C@@H](OC=O)[C@H](OC(=O)C(OC(C)=O)C(C)CC)[C@@]2(C)[C@H](c3ccoc3)CC(=O)C12O (some centres undefined) has normalized growth strictly less than 1
Result: no (0)

Problem: Answer whether the compound CN(C)C(=S)SSC(=S)N(C)C has normalized growth strictly less than 1
Result: yes (1)

Problem: Answer whether the compound CC1CC2C3CCC4=CC(=O)C=C[C@]4(C)[C@@]3(F)[C@@H](O)C[C@]2(C)[C@@]1(O)C(=O)CO (some centres undefined) has normalized growth strictly less than 1
Result: yes (1)

Problem: Answer whether the compound CCOC(=O)c1c(C)cc(O)c(C)c1O has normalized growth strictly less than 1
Result: yes (1)

Problem: Answer whether the compound CN(C)c1ccc(C(=C2C=CC(=[N+](C)C)C=C2)c2ccc(N(C)C)cc2)cc1 has normalized growth strictly less than 1
Result: yes (1)

Problem: Answer whether the compound Cc1cc(O)c(C)c(O)c1C(=O)O has normalized growth strictly less than 1
Result: yes (1)

Problem: Answer whether the compound CCOC(=O)c1c(C)cc(O)c(C=O)c1O has normalized growth strictly less than 1
Result: yes (1)

Problem: Answer whether the compound CC(=O)OCC(=O)[C@@]1(O)CCC2C3CCC4=CC(=O)CC[C@]4(C)C3C(=O)C[C@@]21C (some centres undefined) has normalized growth strictly less than 1
Result: no (0)
